System: Avian myeloblastosis virus
Assay: Inhibition of AMV reverse transcriptase activity assessed as incorporation of dGMP in poly(rC)-oligo(dG) at 1000 uM
Parameters: scale not given: the % may be the effect or the level left
Exercise: for every item that follows, state its recorded Activity.
Give bare numbers, in %.

Worked set:
Molecule: O=C1OC[C@H]2OC(O)[C@@H]3OC(=O)c4cc(O)c(O)c(O)c4-c4c(cc(O)c(O)c4O)C(=O)O[C@H]3[C@@H]2OC(=O)c2cc(O)c(O)c(O)c2-c2c1cc(O)c(O)c2O (stereo partly drawn)
Assayed system: Avian myeloblastosis virus
Activity [%]: 10
--
Molecule: O=C(O)C[C@@H]1C(=O)O[C@H]2[C@@H]3OC(=O)c4cc(O)c(O)c(O)c4-c4c(cc(O)c(O)c4O)C(=O)OC[C@H]2O[C@@H](OC(=O)c2cc(O)c(O)c(O)c2)[C@@H]3OC(=O)c2cc(O)c(O)c3c2[C@H]1[C@H](O)C(=O)O3
Assayed system: Avian myeloblastosis virus
Activity [%]: 8

-- ask Item O=C[C@H](OC(=O)c1cc(O)c(O)c(O)c1)[C@@H](OC(=O)c1cc(O)c(O)c(O)c1)[C@@H]1OC(=O)c2cc(O)c(O)c(O)c2-c2c(cc(Oc3c(C(=O)O[C@@H](C=O)[C@@H](OC(=O)c4cc(O)c(O)c(O)c4)[C@@H]4OC(=O)c5cc(O)c(O)c(O)c5-c5c(cc(O)c(O)c5O)C(=O)OC[C@H]4O)cc(O)c(O)c3O)c(O)c2O)C(=O)OC[C@H]1O has what recorded Activity?
-- reply 15
